- Target: Sialic acid-binding Ig-like lectin 9 (Homo sapiens) (UniProt Q9Y336)
- Sequence (Q9Y336 whole entry): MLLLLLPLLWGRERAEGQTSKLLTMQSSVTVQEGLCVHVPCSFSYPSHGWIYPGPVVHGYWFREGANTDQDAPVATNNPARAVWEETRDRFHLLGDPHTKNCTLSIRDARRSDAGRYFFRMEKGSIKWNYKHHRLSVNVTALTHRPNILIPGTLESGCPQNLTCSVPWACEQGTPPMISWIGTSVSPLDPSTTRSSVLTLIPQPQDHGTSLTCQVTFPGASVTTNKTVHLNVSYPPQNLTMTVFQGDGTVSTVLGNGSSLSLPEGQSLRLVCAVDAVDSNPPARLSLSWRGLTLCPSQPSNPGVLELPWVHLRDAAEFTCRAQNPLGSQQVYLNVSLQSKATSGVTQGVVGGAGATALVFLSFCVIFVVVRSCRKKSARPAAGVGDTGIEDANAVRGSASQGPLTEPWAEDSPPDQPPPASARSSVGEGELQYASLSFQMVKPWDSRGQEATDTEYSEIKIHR
- Experiment description: Hs-Siglec9 ALPHAscreen SOP 20170721
- Parameters: scale not given: direction of the effect not stated beside the values
- Measurement setup: 10 µM
Readout label: Percent Effect (%)

>  <Molecule>
Cc1noc(C)c1CNCC1CCCN1c1cccnn1 (centres undefined)

>  <Value>
-3.1

$$$$
>  <Molecule>
Cc1nn(C)c(N(C)C)c1CNC1CCc2c(F)cccc21 (centres undefined)

>  <Value>
-4.54

$$$$
>  <Molecule>
CCOc1cc(F)ccc1NS(=O)(=O)c1cc(C)c(C(=O)O)s1

>  <Value>
28.9

$$$$
>  <Molecule>
CCOc1cccc(C(C)NCc2ccc(OC)c(OC)c2OC)c1 (centres undefined)

>  <Value>
15.5

$$$$
>  <Molecule>
COc1cccc(CN2C[C@@H]3COC[C@]3(COCc3ccncc3)C2)c1

>  <Value>
-1.02

$$$$
>  <Molecule>
O=C(Cn1cc(C(=O)O)ccc1=O)Nc1ccc(F)cc1Cl

>  <Value>
5.48

$$$$
>  <Molecule>
Cn1ccnc1CNC1CCCN(Cc2noc(C3CC3)n2)C1 (centres undefined)

>  <Value>
4.95

$$$$
>  <Molecule>
Cc1nc(CN2CCCN(CC(=O)Nc3cccnc3)CC2)no1

>  <Value>
-8.79

$$$$
>  <Molecule>
COCCCC(=O)NS(=O)(=O)c1ccc2c(c1)OCCCO2

>  <Value>
9.85

$$$$
>  <Molecule>
COc1cccc(CNCCc2cc(F)cc3c2OCOC3)c1

>  <Value>
27

$$$$
>  <Molecule>
Cn1c(CC2CCS(=O)(=O)C2)nnc1SCCOc1cccc(Cl)c1 (centres undefined)

>  <Value>
20.9

$$$$
>  <Molecule>
CN1[C@H](Cn2cncn2)C[C@@H]2CN(Cc3cccc(C#N)c3)CC[C@@H]21

>  <Value>
-6.04

$$$$
>  <Molecule>
O=C(CCc1cscn1)N1CCCC(c2ccn[nH]2)C1 (centres undefined)

>  <Value>
6.88

$$$$
>  <Molecule>
O=c1nc(CNc2ccccc2)[nH]n1Cc1ccccc1

>  <Value>
0.216

$$$$
>  <Molecule>
COCCN1C[C@@H](C)[C@@]2(COCCN(C(=O)Cc3ccccc3)C2)C1

>  <Value>
6.89

$$$$
>  <Molecule>
CCc1nc(C2CCCN2C(=O)CCNS(C)(=O)=O)no1 (centres undefined)

>  <Value>
-1.58

$$$$
>  <Molecule>
Cc1nn(C)c(C)c1CC(=O)N1CCC(N(C)c2cccnn2)CC1

>  <Value>
-2.31

$$$$
>  <Molecule>
CCCn1ncc(CN2C[C@@H]3CCCN3C[C@@H]2CCSC)c1C

>  <Value>
-4.09

$$$$
>  <Molecule>
CC(=O)Nc1nc(C2CCN(CC(N)=O)CC2)cs1

>  <Value>
5.54

$$$$
>  <Molecule>
COc1ccc(C2=CCN(C(=O)CN(C)CC(C)C#N)CC2)cc1 (centres undefined)

>  <Value>
7.49

$$$$
>  <Molecule>
OCC1CCCN1c1cc(NCCc2c[nH]c3ccccc23)ncn1 (centres undefined)

>  <Value>
-7.58

$$$$
>  <Molecule>
O=C(c1cn(-c2ccccc2Cl)nn1)N1CCCSCC1

>  <Value>
38.1

$$$$
>  <Molecule>
CN1CC2(COCCN(C(=O)c3ccco3)C2)OCC1=O (centres undefined)

>  <Value>
-3.45

$$$$
>  <Molecule>
O=C(c1ccc2c(c1)OCO2)N1CCCC(n2cccn2)C1 (centres undefined)

>  <Value>
-3.52

$$$$
